Data provenance is patent US7851637B2.

test system: Human Pancreatic Cancer Cell Line Panc1; assay: Cell death assay (propidium iodide/Hoechst) in Panc1 cells with or without camptothecin; type: cell-based; conditions: with 3 uM Camptothecin, 72 hours, % cell death by propidium iodide/Hoechst, read-out: Panc1 + Cpt IC50
Quick list: IC50 per entry.

These solved cases illustrate the format of a correct answer.
{"columns": ["compound", "measure_name", "observed_value"],
 "data": [
  ["C[C@@H]1[C@@H](NC(=O)[C@@H]2C([C@H](C)O)[C@H](CO)ON2Cc2cccc(CN(Cc3ccccc3Br)[C@H](CN(C)C)C(C)(C)C)c2)C[C@H]2C[C@@H]1C2(C)C (stereo partly drawn) [Compound 422]", "IC50", "1300 to 1800 nM"],
  ["CC(O)C1C(CO)ON(Cc2cccc(CN(C)C(Cc3ccccc3)CN(C)C)c2)C1C(=O)NC1CC2CC(C1C)C2(C)C (stereo not drawn) [Compound 464]", "IC50", "> 2500 nM"]
]}

We next turn to a different compound, shown below.
The compound identified as CC(O)C1C(CO)ON(Cc2cccc(CN(CCN3CCOCC3)Cc3ccccc3)c2)C1C(=O)NC1CC2CC(C1C)C2(C)C (stereo not drawn) [Compound 434] registered its IC50 at > 2500 nM

* * *

biological target: Bcl-xL (Homo sapiens); test: Bcl-xL binding affinity analysis (fluorescence polarization binding assay); parameters: scale not given here
Sequence (Q07817 whole entry): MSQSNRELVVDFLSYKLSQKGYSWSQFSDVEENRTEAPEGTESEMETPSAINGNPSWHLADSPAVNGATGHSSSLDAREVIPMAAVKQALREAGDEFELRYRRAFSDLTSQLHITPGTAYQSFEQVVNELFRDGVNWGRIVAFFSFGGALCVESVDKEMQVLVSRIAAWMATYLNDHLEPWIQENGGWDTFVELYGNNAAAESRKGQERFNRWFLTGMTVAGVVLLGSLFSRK
measure_name: Bcl-XL binding affinity Ki

Examples with their reported Bcl-XL binding affinity Ki follow.
{"columns": ["molecule", "Bcl-XL binding affinity Ki"],
 "data": [
  ["C[C@@H]1[C@@H](NC(=O)[C@@H]2[C@H]([C@H](C)O)[C@H](CO)ON2Cc2cccc(N3CCN(C(=O)NCc4ccccc4)CC3)c2)C[C@H]2C[C@@H]1C2(C)C", "♯"],
  ["C[C@@H]1[C@@H](NC(=O)[C@@H]2[C@H]([C@H](C)O)[C@H](CO)ON2Cc2cccc(-c3cccc(C(=O)NCCCO)c3)c2)C[C@H]2C[C@@H]1C2(C)C", "♯♯"],
  ["CC(C)CC(CN(C)C)N(Cc1cccc(CN2OC(CO)C(C(C)O)C2C(=O)NC2CC3CC(C2C)C3(C)C)c1)Cc1ccccc1Cl (stereo not shown)", "♯"],
  ["COc1ccc(C(O)C#Cc2cccc(CN3O[C@H](CO)[C@H]([C@@H](C)O)[C@@H]3C(=O)NCCCN(C)c3ccccc3)c2)c(C)c1 (stereo partly shown)", "♯"],
  ["C[C@@H](O)[C@H]1[C@@H](CO)ON(Cc2cccc(C#CC(O)c3ccccc3Cl)c2)[C@H]1C(=O)NCCCN(C)c1ccccc1 (stereo partly shown)", "♯♯"],
  ["C[C@H](O)[C@@H]1[C@H](CO)ON(Cc2cccc(CN(CCN(C)C)Cc3ccccc3)c2)[C@@H]1C(=O)NCC(c1ccccc1)c1ccccc1", "♯"],
  ["CC(O)C1C(CO)ON(Cc2cccc(CNC(CC3CCCCCC3)CN(C)C)c2)C1C(=O)NC1CC2CC(C1C)C2(C)C (stereo not shown)", "♯"],
  ["C[C@@H]1[C@@H](NC(=O)[C@@H]2[C@H]([C@H](C)O)[C@H](CO)ON2Cc2cccc(N(CCN(C)C)Cc3ccccc3)c2)C[C@H]2C[C@@H]1C2(C)C", "♯♯"]
]}

Kindly note the recorded Bcl-XL binding affinity Ki for C[C@@H]1[C@@H](NC(=O)[C@@H]2[C@H]([C@H](C)O)[C@H](CO)ON2Cc2cccc(NC(=O)N[C@H](CC3CCCCC3)CN(C)C)c2)C[C@H]2C[C@@H]1C2(C)C , which is ♯

Sure, the documented Bcl-XL binding affinity Ki for CC(O)C1C(CO)ON(Cc2cccc(C(=O)NC(CN(C)C)c3ccccc3)c2)C1C(=O)NC1CC2CC(C1C)C2(C)C (stereo not shown) is ♯

# molecule COc1c(CN2O[C@@H](CO)[C@@H]([C@H](C)O)[C@H]2C(=O)N[C@H]2C[C@H]3C[C@@H]([C@@H]2C)C3(C)C)cccc1-c1cccc(C(=O)N[C@@H](Cc2ccccc2)CN(C)C)c1 ; its Bcl-XL binding affinity Ki = ♯

// recorded Bcl-XL binding affinity Ki for C[C@@H]1[C@@H](NC(=O)[C@@H]2[C@H]([C@H](C)O)[C@H](CO)ON2Cc2cccc(-c3cccc(C(=O)NCCO)c3)c2)C[C@H]2C[C@@H]1C2(C)C : ♯

get_value(item= CC(C)CC(CN(C)C)N(Cc1ccc(C(F)(F)F)cc1)Cc1cccc(CN2OC(CO)C(C(C)O)C2C(=O)NC2CC3CC(C2C)C3(C)C)c1 (stereo not shown) , readout=Bcl-XL binding affinity Ki) returns ♯

According to the records, this molecule C[C@@H]1[C@@H](NC(=O)[C@@H]2C([C@H](C)O)[C@H](CO)ON2Cc2cccc(CN(Cc3ccccc3)C[C@@H]3CCCN3C(=O)OCc3ccccc3)c2)C[C@H]2C[C@@H]1C2(C)C (stereo partly shown) displays Bcl-XL binding affinity Ki of ♯
